system: LXRα and/or LXRβ; experiment: Co-transfection assay (LXRE luciferase reporter, CV-1 cells); type: cell-based, human; conditions: tested as described in Example 33; IC50 or EC50 for LXRα and/or LXRβ, isoform not specified; read-out: activity (IC50 or EC50 for LXR)
Overview of reported IC50 or EC50 (potency, activation or inhibition) across a group of molecules:

IC50 or EC50 (potency, activation or inhibition) for `CC(C)(O)c1cn(-c2ccc(-c3ccc(CO)c(S(C)(=O)=O)c3)cc2Cl)c(-c2c(F)cccc2F)n1` ? < 1000 nM

###

system: LXRα and/or LXRβ; assay: Co-transfection assay (LXRE luciferase reporter, CV-1 cells); format: cell-based, human; conditions: tested as described in Example 33; IC50 or EC50 for LXRα and/or LXRβ, isoform not specified; read-out: activity (IC50 or EC50 for LXR)
quantity-measured: IC50 or EC50 (potency, activation or inhibition)

Check out these entries, answers already filled in.
> print(dat)
                         structure.notation    observed
1  CCS(=O)(=O)c1cccc(-c2ccc(-n3cc(C(C)(C)O)nc3-c3cccc(Cl)c3C)c(Cl)c2)c1   < 1000 nM
2  Cc1cccc(Cl)c1-c1nc(C(C)(C)O)cn1-c1ccc(-c2ccc(CO)c(S(C)(=O)=O)c2)cc1Cl   < 1000 nM
3  CS(=O)(=O)c1cccc(-c2ccc(-n3cc(C(=O)NCC(=O)O)nc3-c3c(Cl)cccc3Cl)c(Cl)c2)c1  > 10000 nM

Okay, now this compound:
IC50 or EC50 (potency, activation or inhibition) for `NS(=O)(=O)c1cccc(-c2ccc(-c3[nH]c(C(F)(F)F)nc3-c3ccccc3Cl)s2)c1` ? < 1000 nM

Data credit: patent US9000022B2
